tested on: MCF7 breast; assay: NCI tumour cell line growth inhibition, 48 h
Please respond with reported TGI for every item in the list.

Some entries whose results are on file:
CC1(C)CN=C(Nc2ccc(Cl)cc2)S1 | > 100 µM
C=C(C)[C@@]1(O)CCC[C@H]1NC(=O)OC(C)(C)C | > 100 µM
COc1ccc(C2=C(c3cc(OC)c(OC)c(OC)c3)C(=O)CC2)cc1 | > 100 µM
COC(=NCCC1=CCCCC1)OC | > 100 µM
CC1(C)C(=S)C(C)(C)C1=S | > 100 µM

List reported TGI for each of these compounds:
1. CC(=O)OCC12C(OC(C)=O)C[C@@H](C)C3(CC(c4ccoc4)OC3=O)C1CCC(O)C21CO1 (some centres undefined)
2. [C-]#[O+].[Cl][Sn]([Cl])[Cl].[Cl][Sn]([Cl])[Cl].[Pt].c1ccncc1
3. C[C@]12C=CC(=O)C=C1CC[C@@H]1[C@@H]2C(=O)C[C@@]2(C)[C@H]1CC[C@]2(O)C(=O)CO
4. C[C@@H](NC(=O)OC1C=CC2(CC1)C(=O)N(C)c1ccccc12)c1cccc2ccccc12 (some centres undefined)

[reply]
["> 100 µM", "> 100 µM", "> 100 µM", "> 25 µM"]

For every record below, what is its TGI?
1. COC(=O)Nc1nc2cc3c(cc2s1)OCCO3
2. Cc1c(C(=O)O)c2cc3ccccc3cc2c(=O)n1C
3. CC(=O)OC(C)(C)N=Nc1ccc(Br)cc1

[reply]
1. > 50 µM
2. > 10 µM
3. > 100 µM

Need TGI for each of these compounds.
1. Cc1ccc2c(c1)[nH]c(=S)n2C=C1C(=O)CC(C)(C)CC1=O
2. CCCC(=O)OC[n+]1cccc(-c2c(COC(=O)NC(C)C)c(COC(=O)NC(C)C)c3n2CCC3)c1

[reply]
["> 100 µM", "> 100 µM"]

====

test system: SF-268 CNS; assay: NCI tumour cell line growth inhibition, 48 h
Would you kindly list TGI for each of these molecules?

COC(=O)c1ccc([N+](=O)[O-])c(O)c1 | > 100 µM

Return reported TGI values for all items listed beneath this line.
1. C[C@@H](NC(=O)OC1C=CC2(CC1)C(=O)N(C)c1ccccc12)c1cccc2ccccc12 (some centres not stated)
2. COc1ccc([N-]/C(=N\n2c(=O)c(C)nn(C)c2=S)N(c2ccc(OC)cc2)c2nn3c(=O)c(C)n[n+](C)c3s2)cc1
3. CC(C)CC(=O)NC(NC(C)C)(C(F)(F)F)C(F)(F)F
4. COC(=O)N/N=C/c1oc(-c2ccccc2)c(-c2ccccc2)c1[N+](=O)[O-]
5. N=C(N)n1[nH]c2c(c1=O)CCCC2
6. O=C1Nc2ccccc2Nc2nc3cccccc-3c21

[reply]
1. > 25 µM
2. > 100 µM
3. > 100 µM
4. > 100 µM
5. > 100 µM
6. > 100 µM

// each listed molecule needs a value for TGI
1. O=S1(=O)CS(=O)(=O)OCCCO1
2. C=C(C)[C@@H]1CCC2=C[C@@H](OC2=O)[C@@H](C(=C)C)C(=O)/C=C(/C)C(=O)C1
3. COc1ccc(C2=NN(c3ccccc3)C(c3cc4cc(Br)ccc4nc3Cl)C2)cc1 (configuration not stated)
4. O=C1c2ccccc2C(=O)N1CCCCCCNOCCCN1C(=O)c2ccccc2C1=O
5. Cc1ccc2c(=O)c(-c3nnc(N)s3)c[nH]c2n1
6. COc1ccc(-n2c(C)nc3ccc(NC4OCC(O)C(O)C4O)cc3c2=O)cc1 (configuration not stated)
7. NCC1OC(OC2C(CO)OC(OC3C(O)C(N)CC(N)C3OC3OC(CO)C(O)C(O)C3N)C2O)C(N)C(O)C1O (configuration not stated)
8. NCC(NC(=O)OCc1ccccc1)C(=O)O (configuration not stated)

[reply]
1: > 100 µM; 2: > 100 µM; 3: > 25 µM; 4: > 100 µM; 5: > 100 µM; 6: > 100 µM; 7: > 50 µg/mL; 8: > 50 µM

I'm hoping you can list TGI for every molecule here, please.
1. C=C1C(=O)O[C@@H]2C[C@@H]1CC[C@@]1(C)O[C@@H]1CC[C@@]1(C)O[C@@H]1CC[C@@]2(C)O
2. Oc1c(-c2ccccc2)sc2ccccc12

[reply]
["> 100 µM", "> 100 µM"]

====

Task for the reader: assign each of the following molecules its reported TGI.
tested on: OVCAR-4 ovarian; assay: NCI tumour cell line growth inhibition, 48 h

Record excerpt, results attached:
NC(=S)N1N=C2c3ccccc3CC[C@H]2[C@@H]1c1cccs1 | > 100 µM
COc1cccc(NC(=O)CC(=O)N2NC(C)C(N=Nc3cccc(C(=O)O)c3)C2=O)c1 (stereo not given) | > 100 µM
CC[CH2][Sn]([Cl])([Cl])[CH2]CC | 25.6 µM
COc1ccc(C2=C(c3cc(OC)c(OC)c(OC)c3)C(=O)CC2)cc1 | > 100 µM
COc1ccc(-n2c(C)nc3ccc(NC4OCC(O)C(O)C4O)cc3c2=O)cc1 (stereo not given) | > 100 µM

Parameters: items (list). Returns: TGI for each item.
1. COc1ccc(/C=C/c2cc(N3CCOCC3)c3cc(F)c(F)cc3n2)cc1OC
2. C=C1Oc2nc3ccccc3c(=O)n2C1(C)C
3. CCOC(=O)c1c(C)n2c(=O)cc(C)c3c(OC(C)=O)c(OC(C)=O)cc1c32
4. Cc1cc(NS(=O)(=O)c2ccc(NC(=O)c3cccc4c(Nc5ccc(S(=O)(=O)Nc6cc(C)on6)cc5)c5ccccc5nc34)cc2)no1

[reply]
1: 2.04 µM; 2: > 100 µM; 3: > 33.7 µM; 4: > 100 µM

Batch request: TGI per item, same order as input.
1. CN1CCN(C(=S)N(C(=O)c2ccco2)c2ccccc2)CC1
2. Cc1ccc2c(=O)c(-c3nnc(N)s3)c[nH]c2n1
3. O=C(O)CCCCn1cnc2c(=S)nc[nH]c21
4. Cc1ccc(S(=O)(=O)Oc2ccc(OS(=O)(=O)c3ccc(C)cc3)c3c2C(=O)c2ccccc2C3=O)cc1
5. Nc1nc(NNc2ccc(Cl)c(Cl)c2)cc(=O)[nH]1
6. Cc1ccc(S(=O)(=O)Oc2cc(S(=O)(=O)O)cc3cc(S(=O)(=O)O)cc(N)c23)cc1
7. CC(C)N=C(NC#N)NS(=O)(=O)c1cnccc1Nc1ccc(Cl)cc1

[reply]
["> 100 µM", "> 100 µM", "> 100 µM", "> 100 µM", "> 100 µM", "> 100 µM", "> 100 µM"]

Fill in TGI for each of the 4 molecules listed.
1. CCOc1ccc2c(ccc(/C=C\c3cc(C)c4cccnc4c3O)[n+]2C)c1
2. CCOC(=O)C1=C(C)NC2SC(=O)/C(=C\c3ccccc3)N2C1c1ccccc1 (stereo not given)
3. N#Cc1c(NC(=O)CN2CCOCC2)sc2c1CCCC2
4. O=C(O)C1CCCCN1C(=O)c1ccccc1 (stereo not given)

[reply]
18.6 µM
> 100 µM
> 25 µM
> 100 µM

====

test system: RPMI-8226 leukemia; test: NCI tumour cell line growth inhibition, 48 h
reported_metric: TGI

O=C(O)C1c2ccccc2C(C(=O)O)c2ccccc21 (stereo not drawn) | > 100 µM
CC(C)CC(=O)NC(NC(C)C)(C(F)(F)F)C(F)(F)F | > 100 µM
COc1ccc([N-]/C(=N\n2c(=O)c(C)nn(C)c2=S)N(c2ccc(OC)cc2)c2nn3c(=O)c(C)n[n+](C)c3s2)cc1 | > 100 µM
CC(C)N=C(NC#N)NS(=O)(=O)c1cnccc1Nc1ccc(Cl)cc1 | > 100 µM

Please go through the list and note TGI for each compound.
1. CC(=O)OC1CC2(c3ccccc3)C(=O)c3ccccc3N2O1 (stereo not drawn)
2. CC(C)(C)[Si](C)(C)O/N=C\c1ccc(O[Si](C)(C)C(C)(C)C)cc1
3. CCC1CC(=O)N(SCC(N)C(=O)O)C1=O (stereo not drawn)
4. C=C(CS(=O)(=O)c1ccccc1)[P+](c1ccccc1)(c1ccccc1)c1ccccc1

[reply]
> 100 µM
> 100 µM
> 100 µM
11.4 µM

====

Provide the recorded TGI for the entries that follow.
tested on: MALME-3M melanoma; experiment: NCI tumour cell line growth inhibition, 48 h
One number for each entry, in µM.

Some compounds with recorded TGI:
CCN(CC)CCCC(Nc1c2ccc(Cl)cc2nc2ccc(OC)cc12)c1ccc(F)cc1 (configuration not stated) | 3.68
CC1C/C(=N\N(C)C)C(C#N)(C#N)C1(C#N)C#N (configuration not stated) | 13.7

Please examine the following record next.
[ask] Give the value of TGI reported for the following: CC(C)=CCc1c(C)cc2cc3c(c(O)c2c1O)C(O)=CC(=O)C3(CC=C(C)C)C/C=C(\C)CO (configuration not stated)
[reply] 63.8
